target: Proteasome subunit beta (Trypanosoma cruzi); assay: Trypanosoma cruzi proteasome chymotrypsin-like activity (TcProtChymo) assay.; assay type: functional; design: scale not given: in the data most compounds retested in dose-response had high values; settings: 9.37 µM
OBSERVABLE: Percent Effect (%)
// units = %; emit number, no label

Per the record, COCCc1noc(CN2CCOC(Cn3nc(C)cc3C)C2)n1 (stereo unspecified) has Percent Effect of -7.89

Per the record, CCC1c2ccsc2CCN1C(=O)NCc1cc[nH]n1 (stereo unspecified) has Percent Effect of 7.25

Per the record, `Cc1csc2ncc(-c3ccnc(N4CCCC[C@@H]4CO)n3)c(=O)n12` has Percent Effect of 7.72

Per the record, `CC(C)N(Cc1cccc(F)c1)Cc1nc2c(cnn2C)c(=O)[nH]1` has Percent Effect of 1.79

Per the record, `CC(=O)N1CCC(c2cc(C(F)(F)F)n3ccnc3n2)CC1` has Percent Effect of 16.1

Per the record, `CC(C)CN1CCC2(CCN(Cc3ccoc3)CC2)C1=O` has Percent Effect of 19.7

Per the record, Cc1cc(C)n(C2CCCN(C(=O)c3c(C)c(C)n[nH]c3=O)C2)n1 (stereo unspecified) has Percent Effect of 4.16

Per the record, Cc1cccc(-c2noc(CN3CCCC3Cn3cccn3)n2)c1 (stereo unspecified) has Percent Effect of 9.07

Per the record, `COC(=O)COc1cccc(NS(=O)(=O)c2cc(C(=O)O)cs2)c1` has Percent Effect of 17.5

Per the record, `Cc1noc(C2CCN(C(=O)c3ccc(NC4CC4)nc3)CC2)n1` has Percent Effect of 11.3

Per the record, `Cc1ccccc1-c1cncc(C2CCN(C(C)C)CC2)n1` has Percent Effect of 8.37

----------
target: Sialic acid-binding Ig-like lectin 9 (Homo sapiens) (UniProt Q9Y336); test: Hs-Siglec9 ALPHAscreen SOP 20170721; design: scale not given: direction of the effect not stated beside the values; conditions: 10 µM
Sequence (Q9Y336 whole entry): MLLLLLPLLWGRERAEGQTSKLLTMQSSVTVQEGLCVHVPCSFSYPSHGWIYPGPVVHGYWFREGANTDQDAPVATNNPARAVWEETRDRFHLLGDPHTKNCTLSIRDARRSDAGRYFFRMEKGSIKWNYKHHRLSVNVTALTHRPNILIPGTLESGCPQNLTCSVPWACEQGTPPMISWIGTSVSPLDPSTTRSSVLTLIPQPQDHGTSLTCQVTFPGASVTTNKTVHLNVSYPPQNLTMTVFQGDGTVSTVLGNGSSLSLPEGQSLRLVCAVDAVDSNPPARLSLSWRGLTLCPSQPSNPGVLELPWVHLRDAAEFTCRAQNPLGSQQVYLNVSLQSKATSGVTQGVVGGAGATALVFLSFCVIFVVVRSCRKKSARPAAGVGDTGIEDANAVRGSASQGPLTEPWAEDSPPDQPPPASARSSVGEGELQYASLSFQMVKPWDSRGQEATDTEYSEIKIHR
OBSERVABLE: Percent Effect (%)
// units = %; emit number, no label

Case O=C(C1CCOC1)N1CCc2ncc(CNc3ccccn3)n2CC1 (centres undefined) , Sialic acid-binding Ig-like lectin 9 (Homo sapiens) (UniProt Q9Y336), Percent Effect recorded as 8.26

Case `O=C(CN1CCCS1(=O)=O)NCCOc1ccc2c(c1)CCC2` , Sialic acid-binding Ig-like lectin 9 (Homo sapiens) (UniProt Q9Y336), Percent Effect recorded as 4.23

Case `COc1ccc(C(=O)NCCCn2ccnc2)c(OC)n1` , Sialic acid-binding Ig-like lectin 9 (Homo sapiens) (UniProt Q9Y336), Percent Effect recorded as 1.39

Case `c1cnc(OCc2nnc3n2CCN(CC2CC2)C3)nc1` , Sialic acid-binding Ig-like lectin 9 (Homo sapiens) (UniProt Q9Y336), Percent Effect recorded as 5.56

Case COc1cccc(COCC(=O)N2CCCC(n3ccnc3C)C2)c1 (centres undefined) , Sialic acid-binding Ig-like lectin 9 (Homo sapiens) (UniProt Q9Y336), Percent Effect recorded as -2.52

Case Cc1cnn(C2CCCN(C(=O)c3sccc3-n3cnnn3)C2)c1 (centres undefined) , Sialic acid-binding Ig-like lectin 9 (Homo sapiens) (UniProt Q9Y336), Percent Effect recorded as -3.12

Case `CCn1c(Cn2cncn2)nnc1C1CCN(Cc2ccc(C)o2)CC1` , Sialic acid-binding Ig-like lectin 9 (Homo sapiens) (UniProt Q9Y336), Percent Effect recorded as 5.22

Case CCOc1ncccc1C(=O)N1CCCC(c2nccn2CCOC)C1 (centres undefined) , Sialic acid-binding Ig-like lectin 9 (Homo sapiens) (UniProt Q9Y336), Percent Effect recorded as 1.4

Case `CC(C)c1cc(NC(=O)CN2CCNC(=O)C2)on1` , Sialic acid-binding Ig-like lectin 9 (Homo sapiens) (UniProt Q9Y336), Percent Effect recorded as -4.98

Case O=C1CC(c2ccccc2)C2(CCN(Cc3ccccn3)CC2)N1 (centres undefined) , Sialic acid-binding Ig-like lectin 9 (Homo sapiens) (UniProt Q9Y336), Percent Effect recorded as -3.53

Case O=C(CSC1CCc2ccccc2NC1=O)NCCc1ccco1 (centres undefined) , Sialic acid-binding Ig-like lectin 9 (Homo sapiens) (UniProt Q9Y336), Percent Effect recorded as 2.64

Case `CCc1nc(CN2CCN(C(=O)C3CCCCC3)CC2)cs1` , Sialic acid-binding Ig-like lectin 9 (Homo sapiens) (UniProt Q9Y336), Percent Effect recorded as -8.26

Case CC(C)(C)C(O)CN1CCN(C(=O)c2cccc3[nH]ncc23)CC1 (centres undefined) , Sialic acid-binding Ig-like lectin 9 (Homo sapiens) (UniProt Q9Y336), Percent Effect recorded as -18.1

Case `CN(CC(=O)N1CCCN(Cc2cscn2)CC1)c1cnccn1` , Sialic acid-binding Ig-like lectin 9 (Homo sapiens) (UniProt Q9Y336), Percent Effect recorded as 7.79

Case Cc1cnn(CC2CCCN2C(=O)c2cc(Cl)ccc2F)c1 (centres undefined) , Sialic acid-binding Ig-like lectin 9 (Homo sapiens) (UniProt Q9Y336), Percent Effect recorded as -6.93

Case CN(C)CC1CN(Cc2coc(-c3ccccc3Cl)n2)CCO1 (centres undefined) , Sialic acid-binding Ig-like lectin 9 (Homo sapiens) (UniProt Q9Y336), Percent Effect recorded as -4.39

Case Cc1cc(C)n(CC2CN(Cc3nc(-c4ccco4)no3)CCO2)n1 (centres undefined) , Sialic acid-binding Ig-like lectin 9 (Homo sapiens) (UniProt Q9Y336), Percent Effect recorded as 7.28

Case `CC[C@@H]1N(Cc2ccsc2)CCC[C@]12CCC(=O)N2CCOC` , Sialic acid-binding Ig-like lectin 9 (Homo sapiens) (UniProt Q9Y336), Percent Effect recorded as -1.28

Case Cc1nc(C(=O)N2CCC(Cc3cnc4[nH]ccc4c3)C2)co1 (centres undefined) , Sialic acid-binding Ig-like lectin 9 (Homo sapiens) (UniProt Q9Y336), Percent Effect recorded as -5.86

Case `COC(=O)C1CCN(C(=O)c2ccc(C)c(NS(C)(=O)=O)c2)CC1` , Sialic acid-binding Ig-like lectin 9 (Homo sapiens) (UniProt Q9Y336), Percent Effect recorded as -2.25

Case `COc1ccc(CC(=O)N2C[C@@H]3COC[C@]3(CN(C)C)C2)cc1` , Sialic acid-binding Ig-like lectin 9 (Homo sapiens) (UniProt Q9Y336), Percent Effect recorded as 3.29

Case COCc1nc(C(=O)N2CCCC(n3cccn3)C2)cs1 (centres undefined) , Sialic acid-binding Ig-like lectin 9 (Homo sapiens) (UniProt Q9Y336), Percent Effect recorded as 6.57

Case `O=C(c1ccc(F)cc1)N1CCC2(CCCN2CC2CC2)CC1` , Sialic acid-binding Ig-like lectin 9 (Homo sapiens) (UniProt Q9Y336), Percent Effect recorded as -6.13

Case `NC(=O)N1CCC2(CC1)CN(Cc1cccnc1)C(=O)CO2` , Sialic acid-binding Ig-like lectin 9 (Homo sapiens) (UniProt Q9Y336), Percent Effect recorded as 1.96

----------
system: Trypanosoma cruzi; assay: Trypanosoma cruzi phosphomannomutase and mannose-1-phosphate guanylyltransferase assay; type: functional; design: scale not given: direction of the effect not stated beside the values; conditions: 10 µM
OBSERVABLE: Percent Effect (%)
// units = %; emit number, no label

Per the record, COCCc1noc(CN2CCOC(Cn3nc(C)cc3C)C2)n1 (stereo unspecified) has Percent Effect of 6.72

Per the record, `Cc1noc(C(C)C)c1C(=O)NCCCN1CCCC1` has Percent Effect of 1.12

Per the record, `O=C(N1CCC(Nc2cccnn2)CC1)C1(c2ccc(F)cc2)CC1` has Percent Effect of -1.68

Per the record, `Cn1ccc(C(=O)NCc2cccc(NC(=O)C3CCC3)c2)cc1=O` has Percent Effect of 4.48

Per the record, O=C(Nc1cccc2c1CCCC2)C1CCCN1c1nccs1 (stereo unspecified) has Percent Effect of -0.845

Per the record, `CCc1ncnc2c1CCN(Cc1ccc(OC)cc1)CC2` has Percent Effect of 2.82

----------
Target: Arginase-2, mitochondrial (Homo sapiens)
Sequence (whole entry): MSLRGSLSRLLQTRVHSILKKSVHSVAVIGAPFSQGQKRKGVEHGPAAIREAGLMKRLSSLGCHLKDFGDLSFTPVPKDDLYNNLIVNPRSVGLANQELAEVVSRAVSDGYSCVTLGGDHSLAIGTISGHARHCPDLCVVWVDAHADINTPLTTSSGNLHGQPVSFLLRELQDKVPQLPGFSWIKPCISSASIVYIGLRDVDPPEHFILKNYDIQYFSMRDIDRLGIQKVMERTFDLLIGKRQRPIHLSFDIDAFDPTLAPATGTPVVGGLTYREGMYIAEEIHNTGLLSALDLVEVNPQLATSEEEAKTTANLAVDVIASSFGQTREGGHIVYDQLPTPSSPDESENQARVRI
Experiment: in vitro enzyme assay to detect the production of urea directly proportional to the activity of Arginase II; also: in the data most compounds retested in dose-response had high values
Assay type: functional
Parameters: scale not given: direction of the effect not stated beside the values
Details: 30 µM
OBSERVABLE: Percent Effect (%)
// units = %; emit number, no label

Per the record, `Cn1cc(CN2C[C@@H]3COC[C@]3(C(=O)NCc3cccs3)C2)cn1` has Percent Effect of 4.87

Per the record, CN(C)C1CCCN(C(=O)CCc2csc(N)n2)CC1 (stereo unspecified) has Percent Effect of 1.62

Per the record, `CC(C)[C@H](NC(=O)Cn1nc2c(cc1=O)CCCC2)C(=O)O` has Percent Effect of 13.5

Per the record, Cc1nc(NCC2CC2)nc2c1COCC21CCN(CC(=O)N(C)C)C1 (stereo unspecified) has Percent Effect of 4.87

Per the record, CCCc1n[nH]cc1C(=O)NCC1COc2cc(OC)ccc2C1 (stereo unspecified) has Percent Effect of 8.11

Per the record, `OCCN1CCC(c2cncc(-c3cccc(Cl)c3)n2)CC1` has Percent Effect of -3.78
